B1: CPEB3 Ribozyme (parent)
chain: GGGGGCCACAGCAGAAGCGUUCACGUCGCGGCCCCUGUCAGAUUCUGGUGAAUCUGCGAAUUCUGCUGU

Variants of: B1
Test: self-cleavage, relative activity (ratio to wild type); higher = more cleavage; co-transcriptional
Assign class by self-cleavage: not lower than 0.3 means rule met; lower than 0.3 means rule not met.

1) A13C G65C :: rule not met
2) C6A G68A :: rule met
3) U49A G65A :: rule met
4) A13G C24U :: rule met
5) G50U C54U :: rule met
6) G25C G30A :: rule not met
7) G3C G48U :: rule not met
8) G1A G30C :: rule not met
9) A15G C63G :: rule met
10) G5C U61G :: rule not met
11) A40G U61C :: rule met
12) G11U G56C :: rule met
13) A40C G68A :: rule met
14) G1A G47U :: rule not met
15) C7A G17C :: rule not met
16) G58C G68U :: rule met
17) G37A G65A :: rule not met
18) A13C A16U :: rule not met
19) A52C U55G :: rule met
20) G17C U36A :: rule not met
21) G17A U64G :: rule not met
22) G2C G31U :: rule not met
23) C24G A59G :: rule met
24) U44C U46C :: rule met
25) C24G U53G :: rule not met
26) A52U G65A :: rule met
27) G11A C63G :: rule met
28) C32G U46G :: rule met
29) U26A A42C :: rule met
30) G14C C54U :: rule met
31) C54U C66G :: rule met
32) G1C G30A :: rule not met
33) G11C C32G :: rule not met
34) G5A A52C :: rule met
35) C32G G41C :: rule not met
36) A23C G50C :: rule met
37) U20C C39A :: rule not met
38) U46G C63U :: rule met
39) C6A U38G :: rule not met
40) G25C A40U :: rule not met
41) A42U U67A :: rule met
42) A15G G25U :: rule not met
43) A23U U26G :: rule met
44) G5U G25C :: rule not met
